Attribution: patent US4701325A

experimental details: Stability of compound B in aqueous solution of NaHSO3 or Na2SO3 by HPLC
Assay type: physicochemical
condition summary: 3 hours at room temperature, 0.2 mg/ml compound B, Sample: with 2.0 mg/ml NaHSO3 or Na2SO3, read-out: Ratio of remaining compound B
endpoint: remaining at 3 h
Could you write the number and then its unit?

So what's the measured remaining at 3 h for this one? Cc1ccc2c(c1O)NC(S(=O)O)C1CC(/C=C/C(N)=O)=CN1C2=O (stereo not shown) [Compound B]
100%
